Recorded values, source the supplement of paper PMC11417369.

# System: PfAP2-LT AP2 domain (GST-tagged)
# Assay overview: gcPBM binding intensity (ln(normalized median fluorescence intensity)); higher = stronger DNA binding
Whole data set: some 25,000 sequences, median “ln(normalized median fluorescence intensity)” near 8.9, cut for the highest 2% near 10. Many of the other results were omitted from the sample, so the highest values are more common in it than they were.
Each item that follows carries a reported gcPBM binding intensity (ln).
Write no unit; give the number alone.

{"Seq text": "TATAATGGTTCTGGTGTGCACCATGACAGAATCAAG", "Quantitative result": 8.82}
{"Seq text": "GTATAATTTTCGTATTCACACAAGAATATACTACAT [CACACA_site4877]", "Quantitative result": 8.91}
{"Seq text": "AAAAAAGAAAAAAGGACACACATAAATATACTCACG [CACACA_site2904]", "Quantitative result": 9.16}

# next sequence below
Quick check: gcPBM binding intensity (ln) of AAAAAAAAATTAAAAACACACATATAAATAAATATA [CACACA_site6845] ?
8.76

* * *

# Tested on: PfAP2-LT AP2 domain (GST-tagged)
# Assay overview: gcPBM binding intensity (ln(normalized median fluorescence intensity)); higher = stronger DNA binding
In all, about 25,000 sequences were measured (“ln(normalized median fluorescence intensity)”: median about 8.9, highest 2% from about 10 on). The entries come from a sample that favours the highest values as a whole.
Each item that follows carries a reported gcPBM binding intensity (ln).

Recorded gcPBM binding intensity (ln), per entry:
{"Seq text": "TATAAGTGCCGTTATACACACGTTATATAAATATTA [CACACA_site4401]", "Result": 8.81}
{"Seq text": "TACATAAAATATATCACACATATAATATATATATAT [CACACA_site5834]", "Result": 8.86}
{"Seq text": "TTGAAGGTGGCAATGTGTACATAGAATAACCAGTGC [XGTACX_site4738]", "Result": 9.15}

# next sequence below
Quick check: gcPBM binding intensity (ln) of ATAATTTTCCATATTTGTACATATTTTTTTCCCTTG [XGTACX_site8146] ?
8.92
